- System: Salmonella typhimurium
- TEST: Mutagenicity in Salmonella typhimurium TA100 at 0.156 mg/ml after 48 hrs by AMES MPF assay in presence of Sprague-Dawley rat liver microsomal S9 fraction relative to baseline
- Assay type: toxicity, organism-based
- RECORDED CONDITIONS: salmonella enterica subsp. enterica serovar typhimurium
Threshold check on fold change (FC): at or above 2 gives condition met, strictly below gives condition not met.

q: hey, is fold change (FC) for this one >= 2? Cc1ccc(C2=NN(c3nc(-c4ccc(S(C)(=O)=O)cc4)cs3)C(c3ccc(F)cc3)C2)s1 (stereo unspecified)
a: condition not met

q: Please answer likewise for Fc1ccc(C2CC(c3ccc(Cl)s3)=NN2c2nc(-c3ccccc3)cs2)cc1 (stereo unspecified)
a: condition not met

q: Please answer likewise for Fc1ccc(C2CC(c3ccc(Cl)s3)=NN2c2nc(-c3ccc(C(F)(F)F)cc3)cs2)cc1 (stereo unspecified)
a: condition met

q: Please answer likewise for Fc1ccc(C2CC(c3ccc(Cl)s3)=NN2c2nc(-c3ccc(Br)cc3)cs2)cc1 (stereo unspecified)
a: condition met

q: Please answer likewise for Cc1ccc(C2=NN(c3nc(-c4ccc(C#N)cc4)cs3)C(c3ccc(F)cc3)C2)s1 (stereo unspecified)
a: condition not met

q: Please answer likewise for Fc1ccc(C2CC(c3ccc(Cl)s3)=NN2c2nc(-c3ccc(Cl)cc3)cs2)cc1 (stereo unspecified)
a: condition met

The values you see were collected from ChEMBL document CHEMBL3407339.
